Test: qHTS assay to identify small molecule antagonists of the androgen receptor (AR) signaling pathway - cell viability counter screen (AID 743033; also: nearly all actives have a fitted effect of over 45% in size)
Details: AR-bla HEK293 viability, CellTiter-Glo luminescence, 16 h; series mostly up to 58.5 µM
Records with an inconclusive call do not appear. Active and inactive are the calls of the source. Calls follow the shape of the dose curve; as a rule, active = well fitted cell-killing curve with a large enough effect in the repeat runs; inconclusive = weak or mixed curves; inactive = no such curve, though single readings can be large or run the other way.
Possible outcomes: 1 (yes) (active), 0 (no) (inactive)

{"compound": "CCCCC1(COC(=O)CCC(=O)O)C(=O)N(c2ccccc2)N(c2ccccc2)C1=O", "discrete_label": "0 (no)"}
{"compound": "F[B-](F)(F)F", "discrete_label": "0 (no)"}
{"compound": "CC1(C)S[C@@H]2[C@H](NC(=O)[C@H](N)c3ccccc3)C(=O)N2[C@H]1C(=O)O", "discrete_label": "0 (no)"}
{"compound": "Cc1cc(=O)oc2cc(O)ccc12", "discrete_label": "0 (no)"}
{"compound": "C/C=C/C=C/C(=O)O", "discrete_label": "0 (no)"}
{"compound": "Nc1c2c(nc3ccccc13)CCCC2", "discrete_label": "0 (no)"}
{"compound": "COc1ccc(C(Cl)=C(c2ccc(OC)cc2)c2ccc(OC)cc2)cc1", "discrete_label": "0 (no)"}
{"compound": "NC(CO)(CO)CO", "discrete_label": "0 (no)"}
{"compound": "CCN(CC)C(=O)c1cccc(C)c1", "discrete_label": "0 (no)"}
{"compound": "Nc1ccc(O)c([N+](=O)[O-])c1", "discrete_label": "0 (no)"}
{"compound": "O=C1NC(=O)C(c2ccccc2)(c2ccccc2)N1", "discrete_label": "0 (no)"}
{"compound": "Cc1ccc(S(=O)(=O)O)cc1", "discrete_label": "0 (no)"}
{"compound": "CC(C)c1c(C(=O)Nc2ccccc2)c(-c2ccccc2)c(-c2ccc(F)cc2)n1CC[C@@H](O)C[C@@H](O)CC(=O)O", "discrete_label": "0 (no)"}
{"compound": "O=C(O)CC(O)C(=O)O (configuration not stated)", "discrete_label": "0 (no)"}
{"compound": "Cc1cccc(C)c1", "discrete_label": "0 (no)"}
{"compound": "O=C1O[C@H]([C@@H](O)CO)C(O)=C1O", "discrete_label": "0 (no)"}
{"compound": "Nc1c(N=Nc2ccc(-c3ccc(N=Nc4cc(S(=O)(=O)O)c5ccccc5c4N)cc3)cc2)cc(S(=O)(=O)O)c2ccccc12", "discrete_label": "0 (no)"}
{"compound": "CN(C)C(=O)Nc1ccc(Cl)c(Cl)c1", "discrete_label": "0 (no)"}
{"compound": "Cc1ncc([N+](=O)[O-])n1CCO", "discrete_label": "0 (no)"}
{"compound": "CCCc1cc(=O)[nH]c(=S)[nH]1", "discrete_label": "0 (no)"}
{"compound": "O=S1(=O)OC(c2ccc(O)cc2)(c2ccc(O)cc2)c2ccccc21", "discrete_label": "0 (no)"}
{"compound": "O=C1c2c(O)cccc2Cc2cccc(O)c21", "discrete_label": "0 (no)"}
{"compound": "CN(C)CCOC(C)(c1ccccc1)c1ccccn1 (configuration not stated)", "discrete_label": "0 (no)"}
{"compound": "CC(O)(P(=O)(O)O)P(=O)(O)O", "discrete_label": "0 (no)"}
{"compound": "COc1ccc(CN(CCN(C)C)c2ccccn2)cc1", "discrete_label": "0 (no)"}
{"compound": "CCCCC(CC)C(=O)O (configuration not stated)", "discrete_label": "0 (no)"}
{"compound": "CCCCCCc1ccc(O)cc1O", "discrete_label": "0 (no)"}
{"compound": "O=C(O)c1ccccc1", "discrete_label": "0 (no)"}
{"compound": "CCCCNC(=O)NS(=O)(=O)c1ccc(C)cc1", "discrete_label": "0 (no)"}
{"compound": "Cc1c(C(=O)O)c(O)cc2c1C(=O)c1c(O)c([C@@H]3O[C@H](CO)[C@@H](O)[C@H](O)[C@H]3O)c(O)c(O)c1C2=O", "discrete_label": "0 (no)"}
{"compound": "CC12CCC(CC1)C(C)(C)O2", "discrete_label": "0 (no)"}
{"compound": "CN[C@H]1CC[C@@H](c2ccc(Cl)c(Cl)c2)c2ccccc21", "discrete_label": "1 (yes)"}
{"compound": "CCCCCCCC(=O)OCC(COC(=O)CCCCCCC)OC(=O)CCCCCCC", "discrete_label": "0 (no)"}
{"compound": "C1=CC2C3C=CC(C3)C2C1 (configuration not stated)", "discrete_label": "0 (no)"}
{"compound": "NC1CCCCC1", "discrete_label": "0 (no)"}
{"compound": "COc1ccc2c(c1)c(CC(=O)O)c(C)n2C(=O)c1ccc(Cl)cc1", "discrete_label": "0 (no)"}
{"compound": "Cn1c(=O)c2c(ncn2C)n(C)c1=O", "discrete_label": "0 (no)"}
{"compound": "O=c1[nH]cc(F)c(=O)[nH]1", "discrete_label": "0 (no)"}
{"compound": "Nc1ccc([N+](=O)[O-])cc1O", "discrete_label": "0 (no)"}
{"compound": "CCCC[P+](CCCC)(CCCC)CCCC", "discrete_label": "0 (no)"}
{"compound": "Cc1ncc([N+](=O)[O-])n1C", "discrete_label": "0 (no)"}
{"compound": "CC(=O)CC(c1ccccc1)c1c(O)c2ccccc2oc1=O (configuration not stated)", "discrete_label": "0 (no)"}
